assay: Cytotoxicity against human Hep2 cells assessed as cell survival fraction at 5 ug/ml after 24 hrs by trypan blue exclusion assay (reference value: 97 to 98%); assay type: cell-based; conditions: HEp-2 cells, read-out: Survival
MEASURED PROPERTY: viability at 24 h, 5 ug/ml (%)

CCCC/C(CC)=N/Nc1nc(-c2ccc(OC)cc2)cs1 | 81
Clc1ccccc1C(c1ccccc1)(c1ccccc1)n1ccnc1 | 92.5
CC/C(C)=N/Nc1nc(-c2ccc(OC)cc2)cs1 | 69
C/C(=N\Nc1nc(-c2ccc(Cl)cc2Cl)cs1)C1CCCCC1 | 94
CCC/C(C)=N/Nc1nc(-c2ccc(C)cc2)cs1 | 93
C=CCC/C(C)=N/Nc1nc(-c2ccc(OC)cc2)cs1 | 84
CCC/C(C)=N/Nc1nc(-c2ccc(OC)cc2)cs1 | 83
Clc1ccc(-c2csc(NN=C3CCCCCCC3)n2)c(Cl)c1 | 90
CCC(CC)=NNc1nc(-c2ccc(C)cc2)cs1 | 84

Origin of values: ChEMBL document CHEMBL2401735
